biological target: CebE (SCAB57751, CebE^scab) (Streptomyces scabiei, UniProt C9Z451); construct: gene SCAB_57751; N-terminally 6His-tagged CebE without its first 44 codons (signal peptide and membrane-anchoring lipopeptide), produced in E. coli; assay: intrinsic tryptophan fluorescence titration of purified protein; type: binding
Sequence (C9Z451 45-454): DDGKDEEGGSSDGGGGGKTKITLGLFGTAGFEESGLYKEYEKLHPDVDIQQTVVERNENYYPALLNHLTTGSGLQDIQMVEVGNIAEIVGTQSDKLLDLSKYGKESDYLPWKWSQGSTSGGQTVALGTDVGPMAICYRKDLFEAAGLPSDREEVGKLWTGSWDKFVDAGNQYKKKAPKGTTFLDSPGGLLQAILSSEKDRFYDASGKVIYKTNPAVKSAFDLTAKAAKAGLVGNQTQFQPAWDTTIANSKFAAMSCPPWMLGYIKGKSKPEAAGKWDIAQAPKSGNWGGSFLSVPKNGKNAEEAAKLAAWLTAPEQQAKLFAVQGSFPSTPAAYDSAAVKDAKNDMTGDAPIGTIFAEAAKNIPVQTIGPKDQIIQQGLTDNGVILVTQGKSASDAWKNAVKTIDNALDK
Readout: Kd (nM)
Give just the number in nM; leave the unit off.

Memo: OC[C@H]1O[C@@H](O[C@H]2[C@H](O)[C@@H](O)C(O)O[C@@H]2CO)[C@H](O)[C@@H](O)[C@@H]1O (stereo partly shown) [(Glc)2, cellobiose] , reported Kd: 14
